- System: hepatitis C replicon
- ASSAY_PROCEDURE: hepatitis C replicon EC50
- Format: cell-based
- EXPERIMENTAL_CONTEXT: Hepatitis C virus; Table 2; hepatitis C replicon; read-out: EC50
PROPERTY_MEASURED: EC50

The cases that follow already have their EC50 on record.
INPUT_SMILES | PROPERTY_MEASURED | REPORTED_MEASUREMENT
COc1ccc2c(O[C@@H]3C[C@H]4C(=O)N[C@]5(C(=O)NS(=O)(=O)C6CC6)C[C@H]5/C=C\CCCCC[C@H](Nc5ccc(F)cc5)C(=O)N4C3)cc(-c3nc(C(C)C)cs3)nc2c1C | EC50 | < 10 nM
CC1(S(=O)(=O)NC(=O)[C@@]23C[C@H]2/C=C\CCCCC[C@H](Nc2ccc(C(F)(F)F)cc2)C(=O)N2C[C@H](Oc4nc5ccccc5s4)C[C@H]2C(=O)N3)CC1 | EC50 | 75 to 500 nM
COc1ccc2c(O[C@@H]3C[C@H]4C(=O)N[C@]5(C(=O)NS(=O)(=O)N6CCCC6)C[C@H]5/C=C\CCCCC[C@H](Nc5ccccc5)C(=O)N4C3)cc(-c3nc(C(C)C)cs3)nc2c1C | EC50 | < 10 nM
COc1ccc2c(O[C@@H]3C[C@H]4C(=O)N[C@]5(C(=O)NS(=O)(=O)C6CC6)C[C@H]5/C=C\CCCCC[C@H](Nc5ccccc5)C(=O)N4C3)cc(-c3nc(C(C)C)cs3)nc2c1C | EC50 | < 10 nM

IN: Assign EC50 to the following record: "COc1ccc2c(O[C@@H]3C[C@H]4C(=O)N[C@]5(C(=O)NS(=O)(=O)C6CC6)C[C@H]5/C=C\CCCCC[C@H](Nc5cccc(OC(F)(F)F)c5)C(=O)N4C3)cc(-c3nc(C(C)C)cs3)nc2c1C"
OUT: < 10 nM

----------
- Test system: hepatitis C replicon
- ASSAY_PROCEDURE: hepatitis C replicon EC50
- Type: cell-based
- EXPERIMENTAL_CONTEXT: Hepatitis C virus; Table 3; hepatitis C replicon; read-out: EC50
pEC50: −log10 of the molar value.
# pEC50 values compiled below

Worked cases, answers included:
COMPOUND | EXPERIMENTAL_TARGET | pEC50
CC(C)(C)OC(=O)N[C@H]1CCCCC/C=C\[C@@H]2C[C@@]2(C(=O)NS(=O)(=O)C2(C)CC2)NC(=O)[C@@H]2C[C@@H](Oc3nc4ccc(F)cc4s3)CN2C1=O [Compound 1011] | hepatitis C replicon | 7.00 to 8.00
CC1(S(=O)(=O)NC(=O)[C@@]23C[C@H]2/C=C\CCCCC[C@H](Nc2ccccc2F)C(=O)N2C[C@H](OC(=O)N4Cc5cccc(F)c5C4)C[C@H]2C(=O)N3)CC1 [Compound 1124] | hepatitis C replicon | 7.00 to 8.00
CC(=O)O[C@@H]1C[C@H]2C(=O)N[C@]3(C(=O)NS(=O)(=O)C4CC4)C[C@H]3/C=C\CCCCC[C@H](NC(=O)OC(C)(C)C)C(=O)N2C1 [Compound 1071] | hepatitis C replicon | < 7.00
CC1(S(=O)(=O)NC(=O)[C@@]23C[C@H]2/C=C\CCCCC[C@H](Nc2cc(F)cc(C(F)(F)F)c2)C(=O)N2C[C@H](OC(=O)N4Cc5cccc(F)c5C4)C[C@H]2C(=O)N3)CC1 [Compound 1100] | hepatitis C replicon | > 8.00
Cc1cccc2nc(O[C@@H]3C[C@H]4C(=O)N[C@]5(C(=O)NS(=O)(=O)N(C)C)C[C@H]5/C=C\CCCCC[C@H](NC(=O)OC(C)(C)C)C(=O)N4C3)n(C(C)C)c12 [Compound 1138] | hepatitis C replicon | > 8.00

IN: Return value of pEC50 for input CC1(S(=O)(=O)NC(=O)[C@@]23C[C@H]2/C=C\CCCCC[C@H](Nc2cccc(C(N)=O)c2)C(=O)N2C[C@H](OC(=O)N4Cc5cccc(F)c5C4)C[C@H]2C(=O)N3)CC1 [Compound 1101] , no commentary.
OUT: 7.00 to 8.00

IN: State its pEC50 for this compound: O=C1N[C@]2(C(=O)NS(=O)(=O)C3CC3)C[C@H]2/C=C\CCCCC[C@H](Nc2cc(F)cc(C(F)(F)F)c2)C(=O)N2C[C@H](OC(=O)N3Cc4cccc(F)c4C3)C[C@@H]12 [Compound 1128]
OUT: > 8.00

IN: // Input: CC(C)(C)OC(=O)N[C@H]1CCCCC/C=C\[C@@H]2C[C@@]2(C(=O)NS(=O)(=O)C2CC2)NC(=O)[C@@H]2C[C@@H](Oc3nc4ccc(F)cc4o3)CN2C1=O [Compound 1037] . Output its pEC50 only.
OUT: < 7.00

IN: Give the measured pEC50 for CC(C)n1c(O[C@@H]2C[C@H]3C(=O)N[C@]4(C(=O)NS(=O)(=O)N(C)C)C[C@H]4/C=C\CCCCC[C@H](NC(=O)OC(C)(C)C)C(=O)N3C2)nc2ccccc21 [Compound 1131]
OUT: > 8.00

IN: Please supply the value of reported pEC50 for the item CC(C)(C)OC(=O)N[C@H]1CCCCC/C=C\[C@@H]2C[C@@]2(C(=O)NS(=O)(=O)C2CC2)NC(=O)[C@@H]2C[C@@H](Oc3nc4ccccc4n3Cc3ccccc3)CN2C1=O [Compound 1051]
OUT: 7.00 to 8.00

IN: Read off the recorded pEC50 for CC(C)(C)OC(=O)N[C@H]1CCCCC/C=C\[C@@H]2C[C@@]2(C(=O)NS(=O)(=O)C2CC2)NC(=O)[C@@H]2C[C@@H](Oc3nc4cc(F)ccc4o3)CN2C1=O [Compound 1034]
OUT: 7.00 to 8.00

IN: Complete the entry with pEC50 for Cc1cccc(N[C@H]2CCCCC/C=C\[C@@H]3C[C@@]3(C(=O)NS(=O)(=O)C3(C)CC3)NC(=O)[C@@H]3C[C@@H](OC(=O)N4Cc5cccc(F)c5C4)CN3C2=O)c1 [Compound 1103]
OUT: > 8.00

IN: Recall and state the measured pEC50 for CC(C)(C)OC(=O)N[C@H]1CCCCC/C=C\[C@@H]2C[C@@]2(C(=O)NS(=O)(=O)C2CC2)NC(=O)[C@@H]2C[C@@H](Oc3nc4ccccc4s3)CN2C1=O [Compound 1009] .
OUT: > 8.00

IN: Provide one value: measured pEC50 of CCn1c(O[C@@H]2C[C@H]3C(=O)N[C@]4(C(=O)NS(=O)(=O)C5(C)CC5)C[C@H]4/C=C\CCCCC[C@H](NC(=O)OC(C)(C)C)C(=O)N3C2)nc2ccccc21 [Compound 1048]
OUT: > 8.00

IN: Provide one value: measured pEC50 of CC(C)(C)c1cccc(N[C@H]2CCCCC/C=C\[C@@H]3C[C@@]3(C(=O)NS(=O)(=O)C3(C)CC3)NC(=O)[C@@H]3C[C@@H](OC(=O)N4Cc5cccc(F)c5C4)CN3C2=O)c1 [Compound 1126]
OUT: > 8.00

IN: Determine from records and report pEC50 for CC(C)(C)OC(=O)N[C@H]1CCCCC/C=C\[C@@H]2C[C@@]2(C(=O)NS(=O)(=O)C2CC2)NC(=O)[C@@H]2C[C@@H](Oc3nc4cccc(F)c4o3)CN2C1=O [Compound 1038]
OUT: 7.00 to 8.00

IN: # return recorded pEC50 for entry CN(C)S(=O)(=O)NC(=O)[C@@]12C[C@H]1/C=C\CCCCC[C@H](NC(=O)OC(C)(C)C)C(=O)N1C[C@H](Oc3nc4ccccc4n3COCC[Si](C)(C)C)C[C@H]1C(=O)N2 [Compound 1143]
OUT: < 7.00

IN: Report pEC50, nothing else, for this compound: CC(C)(C)OC(=O)N[C@H]1CCCCC/C=C\[C@@H]2C[C@@]2(C(=O)NS(=O)(=O)C2CC2)NC(=O)[C@@H]2C[C@@H](Oc3nc4ccc(F)cc4s3)CN2C1=O [Compound 1010]
OUT: 7.00 to 8.00

IN: Answer with the recorded pEC50 of CC(C)(C)OC(=O)N[C@H]1CCCCC/C=C\[C@@H]2C[C@@]2(C(=O)NCCC(=O)NCc2ccccc2)NC(=O)[C@@H]2C[C@@H](OC(=O)N3Cc4cccc(F)c4C3)CN2C1=O [Compound 1052] only.
OUT: < 7.00
